Assay: Cytotoxicity of human HepG2(2.2.15) cells assessed as growth inhibition at 100 ug/mL by MTT assay
Format: cell-based
Readout type: inhibition at 100 ug/mL

*Q* For the compound shown here, CC(C)(O)[C@@H]1CC[C@@]2(C)CCC(CO)=CC[C@H]12 (relative stereo) , give the reported inhibition at 100 ug/mL.
*A* ≥ 25%
